Measurement Notes: yeast display, Sf9 membrane polyspecificity reagent, FACS + sequencing; frameworks hold sequencing errors
Reported Metric: polyreactivity (PSR sort gate)

Study these solved cases before continuing.
QVQLVESGGGLVQAGRSLRLSCAASGSTFVPYAMGWYRQAPGKERELVAAITTSGGNTYYADSVKGRFTISRDNAKNTVYLQMNSLKPEDTAVYYCAADTYRRFDYWGQGTQVTVSS | low polyreactivity
QVQLVESGGGLVQSGGSLRLSCAASGSTFVSNAMGWYRQAPGKERELFAAINGSGGITYYADSVKGRFTISRDNAKNTVYLQMNSLKPEDTAVYYCAAEYDGPYTWVDYYYHYGYWGQGTEVTVSS | low polyreactivity
QVQLVESGGGLVQAGGSLRLSCAASGRIFIYNVMGWYRQAPGKERELVATISTGGTTNYADSVKGRFTISRDNAKNTVYLQMNSLKPEDTAVYYCNRGSGYWYLPAVKYDHWGQGTQVTVSS | low polyreactivity
QVQLVESGGGLVQAGGSLRLSCAASGRIFGYYTMGWYRQAPGKERELVAAITRDGGSTYYADSVKGRFTISRDNAKNTVYLQMNSLKPEDTAVDYCTAASQSRYYYWGQGTQVTVSS | high polyreactivity

Kindly review the next sequence as well.
*Q* I am curious: what polyreactivity (PSR sort gate) value has been reported for QDQLVESGGGIVQAGGRLRLSCAASGSIFRYYAMGWYRQAPGKERDLVAAINWDGGSTYYADSVKGRFTISRDNAKNTVYLQMNSLKPEDTAVYYCATTSRVYAYGYRTSNYWGQGTQVTVSS ?
*A* high polyreactivity
